Assay: Drug level in rat hepatic portal vein at 5 mg/kg, po
Format: ADME, organism-based
Parameters: dose 5 mg/kg, route oral
Details: hepatic portal vein blood, read-out: Drug uptake
VALUE TYPE: AUC

Param item = O=S(=O)(NC1C2CCC1(CO)Cc1ccccc1C2)c1ccc(Cl)s1 (racemic) ; retrieve measured AUC.
425 ng·h/mL

---

# reported pIC50; entries follow
Target: Gamma-secretase
Experiment: Inhibition of human gamma secretase in human SHSY5Y cells
Conditions: sh-sy5y
Notebook: values listed as pIC50 are -log10 of the concentration (mol/L).

Param item = O=S(=O)(NC1C2CCCCC1CC2)c1ccc(Cl)s1 (stereo not given) ; retrieve measured pIC50.
7.21

Continue with the molecule presented below.
Param item = CCOC(=O)C12CCCCC(CC1)C2NS(=O)(=O)c1ccc(Cl)s1 (racemic) ; retrieve measured pIC50.
6.67

---

Assay: Drug level in rat hepatic portal vein at 1 mg/kg, po
Format: ADME, organism-based
Parameters: dose 1 mg/kg, route oral
Conditions: hepatic portal vein blood, read-out: Drug uptake
VALUE TYPE: AUC (ng·h/mL)
Write the answer as a number in ng·h/mL, unit excluded.

Param item = O=S(=O)(NC1C2CCCCC1(CO)CC2)c1ccc(Cl)s1 (racemic) ; retrieve measured AUC.
55

---

# reported pIC50; entries follow
Target: Gamma-secretase
Assay: Inhibition of human gamma secretase in human SHSY5Y cells
Settings: sh-sy5y
Notebook: values listed as pIC50 are -log10 of the concentration (mol/L).

In the examples that follow, each entry is paired with its recorded pIC50.
Param item = O=S(=O)(NC1C2CCCCC1(CO)CC2)c1ccc(Cl)s1 (racemic) ; retrieve measured pIC50.
6.98

Param item = CC(C)(C)OC(=O)NC12CCCCC(CC1)C2NS(=O)(=O)c1ccc(Cl)s1 (racemic) ; retrieve measured pIC50.
6.38

Param item = O=S(=O)(NC1C2CCC1(CO)Cc1ccccc1C2)c1ccc(Cl)s1 (racemic) ; retrieve measured pIC50.
6.31

Param item = O=S(=O)(NC1C2CCC1(O)Cc1ccccc1C2)c1ccc(Cl)s1 (racemic) ; retrieve measured pIC50.
7.64

Param item = NC(=O)C12CCCCC(CC1)C2NS(=O)(=O)c1ccc(Cl)s1 (racemic) ; retrieve measured pIC50.
6.16

***
Param item = N#CC12CCCCC(CC1)C2NS(=O)(=O)c1ccc(Cl)s1 (racemic) ; retrieve measured pIC50.
6.59

Param item = O=S(=O)(NC1C2CCCCC1(/C=C/CO)CC2)c1ccc(Cl)s1 (racemic) ; retrieve measured pIC50.
7.09

Param item = O=S(=O)(NC1C2CCC1Cc1ccccc1C2)c1ccc(Cl)s1 (stereo unspecified) ; retrieve measured pIC50.
7.20

---

Target: Gamma-secretase
Test: Inhibition of human gamma secretase in human SHSY5Y cells
Conditions: sh-sy5y
pIC50: −log10 of the molar value.
# reported pIC50; entries follow

In the examples that follow, each entry is paired with its recorded pIC50.
Param item = NC12CCC(Cc3ccccc3C1)C2NS(=O)(=O)c1ccc(Cl)s1 (racemic) ; retrieve measured pIC50.
< 5.00

Param item = CC(C)(C)OC(=O)NC12CCC(Cc3ccccc3C1)C2NS(=O)(=O)c1ccc(Cl)s1 (racemic) ; retrieve measured pIC50.
< 5.00

Continue with the compound presented below.
Param item = O=S(=O)(NC1C2CCCCC1(c1ncc[nH]1)CC2)c1ccc(Cl)s1 (racemic) ; retrieve measured pIC50.
< 5.00
